Please go through the items and note down their EC50.
Biological target: human MC1 receptor (Homo sapiens, UniProt Q01726)
Construct: expressed in transfected cells; host or cells: Chinese Hamster Ovary (CHO) cells
Sequence (Q01726 whole entry): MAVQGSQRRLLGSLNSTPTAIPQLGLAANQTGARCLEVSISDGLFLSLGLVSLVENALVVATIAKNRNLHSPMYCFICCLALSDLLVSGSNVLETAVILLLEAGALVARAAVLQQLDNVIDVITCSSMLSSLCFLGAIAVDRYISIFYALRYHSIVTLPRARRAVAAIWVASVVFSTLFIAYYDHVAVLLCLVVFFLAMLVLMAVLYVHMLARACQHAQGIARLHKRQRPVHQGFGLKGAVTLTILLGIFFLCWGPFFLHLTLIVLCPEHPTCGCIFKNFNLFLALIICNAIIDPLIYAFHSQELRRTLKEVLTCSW
Assay: Human MC1 receptor cAMP HTRF functional assay (MC1R stimulation)
Format: cell-based
Settings: agonist activity; CHO cells expressing human MC1R; 30 min incubation; 8 concentrations in duplicate; read-out: EC50 [nM], MC1R stimulation assay
Residues, ends and D or L forms follow the SMILES beside them.
Give bare numbers, in nM.

N=C(N)NCCC[C@H](NC(=O)[C@@H](Cc1ccccc1)NC(=O)[C@H](Cc1cnc[nH]1)NC(=O)CNC(=O)c1ccccc1)C(=O)N(CCc1c[nH]c2ccccc12)CC(N)=O [(I-i)] (HELM PEPTIDE1{[O=C(c1ccccc1)[*:2]].G.H.[dF].R.[O=C(CN(CCc1c[nH]c2ccccc12)[*:1])[*:2]].[am]}$$$$V2.0)
4.4

Would you mind listing EC50 for each of the following compounds?
1. N=C(N)NCCC[C@H](NC(=O)[C@@H](Cc1ccccc1)NC(=O)[C@H](Cc1c[nH]cn1)NC(=O)CNC(=O)c1ccccc1)C(=O)NCCc1c[nH]c2ccccc12 [Compound R4, Bz-Gly-His-D-Phe-Arg-Tryptamide *2TFA, reference compound] (HELM PEPTIDE1{[O=C(c1ccccc1)[*:2]].G.H.[dF].R.[c1ccc2c(CCN[*:1])c[nH]c2c1]}$$$$V2.0)
2. N=C(N)NCCC[C@H](NC(=O)[C@@H](Cc1ccccc1)NC(=O)[C@H](Cc1c[nH]cn1)NC(=O)CNC(=O)c1ccccc1)C(=O)N[C@H](Cc1ccccc1)C(N)=O [(I-g), Bz-Gly-His-D-Phe-Arg-D-Phe-NH2 *2TFA] (HELM PEPTIDE1{[O=C(c1ccccc1)[*:2]].G.H.[dF].R.[dF].[am]}$$$$V2.0)

Return:
[42.9, 1.79]
